Consider the following compounds; for each one, report its z-score.
Experiment: HepG2 liver cancer cell viability effects, profiling panel, resazurin fluorescence, 24 h, PK04 Diversity Set (AID 1172); note: test concentration not given here
Settings: higher = more signal
Reply with the value as a number alone.

# input Using the record for CCC(CC)C(O)C1C=CC2C(=O)N(c3ccccc3)C(=O)C2N1Nc1ccc(C(C)C)cc1 (stereo not drawn) , report its z-score.
# output -1.35

# input Requested field: z-score. Item: COc1ccc([Si](C)(C)[C@@H]2[C@@H](CC(=O)N3Cc4ccccc4C[C@H]3CO)O[C@]3(C(=O)N(Cc4cccc(N5C(=O)c6cccc7cccc5c67)c4)c4ccccc43)[C@H]2C)cc1
# output -0.468

# input Entry under review: COCCOC(=O)N1C(=O)[C@@]2(c3cc(C#Cc4ccc(OC)cc4)ccc31)[C@H](c1ccc(O)cc1)N1[C@H](c3ccccc3)[C@H](c3ccccc3)OC(=O)[C@H]1[C@@H]2C(=O)N1CCCCCCC1 . Reported z-score?
# output -0.113
